- system under test: ACAT of HepG2 cells (Homo sapiens, UniProt P35610)
- Construct: endogenous in cells; host or cells: HepG2
- Sequence (P35610 whole entry): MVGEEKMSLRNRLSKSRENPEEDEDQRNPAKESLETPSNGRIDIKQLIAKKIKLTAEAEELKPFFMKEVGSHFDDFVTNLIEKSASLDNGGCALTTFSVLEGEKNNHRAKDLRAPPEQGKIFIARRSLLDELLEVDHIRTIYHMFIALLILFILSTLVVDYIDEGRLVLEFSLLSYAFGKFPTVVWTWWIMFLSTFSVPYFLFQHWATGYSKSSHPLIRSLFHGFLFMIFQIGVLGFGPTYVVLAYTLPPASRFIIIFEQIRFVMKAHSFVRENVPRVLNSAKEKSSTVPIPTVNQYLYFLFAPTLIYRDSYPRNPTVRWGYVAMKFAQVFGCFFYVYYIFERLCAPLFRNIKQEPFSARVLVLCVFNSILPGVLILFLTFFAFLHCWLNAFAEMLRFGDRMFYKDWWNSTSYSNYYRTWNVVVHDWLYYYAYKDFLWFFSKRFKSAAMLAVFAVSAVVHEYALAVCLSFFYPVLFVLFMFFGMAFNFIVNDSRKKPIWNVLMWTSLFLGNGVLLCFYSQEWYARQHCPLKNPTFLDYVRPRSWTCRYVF
- measurement protocol: Inhibitory activity against ACAT of HepG2 cells derived from human liver cancer cells
- Assay type: cell-based
- condition set: radio-labelled oleic acid/BSA complex, cholesterol oleate produced
- Method: Inhibitory Activity against ACAT of HepG2 cells Derived from Human Liver Cancer Cells Inhibitory activities of the compounds of the present invention against ACAT were measured by the method described below. […] A complex of radio-labelled oleic acid and bovine serum albumin was added to a culture of the cells, and the activity was measured by observing the amount of radio-labelled cholesterol oleate produced from the radio-labelled oleic acid in the cells.
Structures can show the parent of a compound that is named as a salt.
quantity name: IC50 (nM)

Previously resolved entries follow.
CCCCCN(Cc1cc(-n2ccnc2)ccc1OC)C(=O)Nc1c(C)cccc1OCCCN1CCN(c2ccccc2)CC1 [Example 2, trihydrochloride] : 101
O=C(Nc1c(OCCCN2CCN(c3ccccc3)CC2)ccc2c1CCCC2)N(CCCc1ccccc1)Cc1ccccc1OCc1ccccn1 : 124
COc1ccc(-n2ccnc2)cc1CN(CC(C)C)C(=O)Nc1c(C)cccc1OCCCN1CCN(c2ccccc2)CC1 : 458
CCCCCN(Cc1cc(-n2ccnc2)ccc1OCc1ccccn1)C(=O)Nc1c(C)cccc1OCCCN1CCN(c2ccccc2)CC1 [Example 31] : 138

a: CCCN(Cc1ccccc1OCc1cccnc1)C(=O)Nc1c(OCCCN2CCN(c3ccccc3)CC2)ccc2c1CCCC2
b: CCCN(Cc1cc(-n2ccnc2)cc2c1OCO2)C(=O)Nc1c(C)cccc1OCCCN1CCN(c2ccccc2)CC1
## Input Smaller IC50 value? Options are a and b Lab note: record the label of whichever item you select.
## Output a

I: CCCCCN(Cc1cccc(OCc2ccccn2)c1)C(=O)Nc1c(C)cccc1OCCCN1CCN(c2ccccc2)CC1
II: CCCCCN(Cc1cc(-n2cccc2)ccc1OC)C(=O)Nc1c(C)cccc1OCCCN1CCN(c2ccccc2)CC1
III: CCCCCN(Cc1cc(-n2ccnc2)ccc1OC)C(=O)Nc1c(C)cccc1OCCN1CCN(c2ccccc2)CC1
IV: COc1ccc(-n2ccnc2)cc1CN(Cc1ccccc1)C(=O)Nc1c(OCCCN2CCN(c3ccccc3)CC2)ccc2c1CCCC2
V: CCCCCN(Cc1cc(-n2ccnc2)cc(OC)c1OC)C(=O)Nc1c(C)cccc1OCCCN1CCN(c2ccccc2)CC1
## Input // smallest IC50 at index 0, largest at the end Please respond by ranking the labels in the order requested.
## Output IV, III, I, II, V
(IV: 67 nM, III: 164 nM, I: 270 nM, II: 483 nM, V: 851 nM)
